assay-details: total protein half-life in vivo (active degradation + dilution); higher = more stable protein
setup-conditions: wild type E. coli NCM3722; growth: N-lim chemostat; doubling time 12 h
property: total protein half-life in vivo (h)
Supply the numeric figure in h, leaving out any unit text.

Q: Provide only the value of recorded total protein half-life in vivo for MQQVFFQETEFLNSVIDYDHKVETENLCLDIAYGTDKNFLFGCGISIASILKYNEGSRLCFHIFTDYFGDDDRKYFDALALQYKTRIKIYLINGDRLRSLPSTKNWTHAIYFRFVIADYFINKAPKVLYLDADIICQGTIEPLINFSFPDDKVAMVVTEGQADWWEKRAHSLGVAGIAKGYFNSGFLLINTAQWAAQQVSARAIAMLNEPEIIKKITHPDQDVLNMLLADKLIFADIKYNTQFSLNYQLKESFINPVTNDTIFIHYIGPTKPWHDWAWDYPVSQAFMEAKNASPWKNTALLKPNNSNQLRYSAKHMLKKHRYLKGFSNYLFYFIEKIKH
A: 11.7

###

assay-details: total protein half-life in vivo (active degradation + dilution); higher = more stable protein
setup-conditions: wild type E. coli NCM3722; growth: C-lim chemostat; doubling time 3 h
property: total protein half-life in vivo (h)
Quick note: give the figure in h, leave out the unit.

Q: Fill in total protein half-life in vivo for record MSAGSPKFTVRRIAALSLVSLWLAGCSDTSNPPAPVSSVNGNAPANTNSGMLITPPPKMGTTSTAQQPQIQPVQQPQIQATQQPQIQPVQPVAQQPVQMENGRIVYNRQYGNIPKGSYSGSTYTVKKGDTLFYIAWITGNDFRDLAQRNNIQAPYALNVGQTLQVGNASGTPITGGNAITQADAAEQGVVIKPAQNSTVAVASQPTITYSESSGEQSANKMLPNNKPTATTVTAPVTVPTASTTEPTVSSTSTSTPISTWRWPTEGKVIETFGASEGGNKGIDIAGSKGQAIIATADGRVVYAGNALRGYGNLIIIKHNDDYLSAYAHNDTMLVREQQEVKAGQKIATMGSTGTSSTRLHFEIRYKGKSVNPLRYLPQR [P0ADA3]
A: 2.93

###

assay-details: total protein half-life in vivo (active degradation + dilution); higher = more stable protein
setup-conditions: wild type E. coli NCM3722; growth: C-lim chemostat; doubling time 12 h
property: total protein half-life in vivo (h)
The answer is to be given in h; state only the numeric part.

Q: Specify measured total protein half-life in vivo for MKTKLMTLQDATGFFRDGMTIMVGGFMGIGTPSRLVEALLESGVRDLTLIANDTAFVDTGIGPLIVNGRVRKVIASHIGTNPETGRRMISGEMDVVLVPQGTLIEQIRCGGAGLGGFLTPTGVGTVVEEGKQTLTLDGKTWLLERPLRADLALIRAHRCDTLGNLTYQLSARNFNPLIALAADITLVEPDELVETGELQPDHIVTPGAVIDHIIVSQESK .
A: 8.54

Q: Give total protein half-life in vivo for MLIRVEIPIDAPGIDALLRRSFESDAEAKLVHDLREDGFLTLGLVATDDEGQVIGYVAFSPVDVQGEDLQWVGMAPLAVDEKYRGQGLARQLVYEGLDSLNEFGYAAVVTLGDPALYSRFGFELAAHHDLRCRWPGTESAFQVHRLADDALNGVTGLVEYHEHFNRF
A: 9.91

Q: Please look at this sequence and report its total protein half-life in vivo: MAIRLYKLAVALGVFIVSAPAFSHGHHSHGKPLTEVEQKAANGVFDDANVQNRTLSDWDGVWQSVYPLLQSGKLDPVFQKKADADKTKTFAEIKDYYHKGYATDIEMIGIEDGIVEFHRNNETTSCKYDYDGYKILTYKSGKKGVRYLFECKDPESKAPKYIQFSDHIIAPRKSSHFHIFMGNDSQQSLLNEMENWPTYYPYQLSSEEVVEEMMSH
A: 12.8

Q: Return reported total protein half-life in vivo. Input sequence: MVDQAQDTLRPNNRLSDMQATMEQTQAFENRVLERLNAGKTVRSFLITAVELLTEAVNLLVLQVFRKDDYAVKYAVEPLLDGDGPLGDLSVRLKLIYGLGVINRQEYEDAELLMALREELNHDGNEYAFTDDEILGPFGELHCVAALPPPPQFEPADSSLYAMQIQRYQQAVRSTMVLSLTELISKISLKKAFQK [P0AF10]
A: 12.5

Q: Please report total protein half-life in vivo for the following sequence: MKIITCYKCVPDEQDIAVNNADGSLDFSKADAKISQYDLNAIEAACQLKQQAAEAQVTALSVGGKALTNAKGRKDVLSRGPDELIVVIDDQFEQALPQQTASALAAAAQKAGFDLILCGDGSSDLYAQQVGLLVGEILNIPAVNGVSKIISLTADTLTVERELEDETETLSIPLPAVVAVSTDINSPQIPSMKAILGAAKKPVQVWSAADIGFNAEAAWSEQQVAAPKQRERQRIVIEGDGEEQIAAFAENLRKVI
A: 10.2

Q: Dear colleague, please send me the reported total protein half-life in vivo for MAKHLFTSESVSEGHPDKIADQISDAVLDAILEQDPKARVACETYVKTGMVLVGGEITTSAWVDIEEITRNTVREIGYVHSDMGFDANSCAVLSAIGKQSPDINQGVDRADPLEQGAGDQGLMFGYATNETDVLMPAPITYAHRLVQRQAEVRKNGTLPWLRPDAKSQVTFQYDDGKIVGIDAVVLSTQHSEEIDQKSLQEAVMEEIIKPILPAEWLTSATKFFINPTGRFVIGGPMGDCGLTGRKIIVDTYGGMARHGGGAFSGKDPSKVDRSAAYAARYVAKNIVAAGLADRCEIQVSYAIGVAEPTSIMVETFGTEKVPSEQLTLLVREFFDLRPYGLIQMLDLLHPIYKETAAYGHFGREHFPWEKTDKAQLLRDAAGLK [P0A817] when you can.
A: 6.86

###

assay-details: total protein half-life in vivo (active degradation + dilution); higher = more stable protein
setup-conditions: wild type E. coli NCM3722; growth: C-lim chemostat; doubling time 6 h
property: total protein half-life in vivo (h)
Answer in h, number only, no unit symbol.

Q: Identify measured total protein half-life in vivo associated with MPLLKLWAGSLVMLAAVSLPLQAASPVKVGSKIDTEGALLGNIILQVLESHGVPTVNKVQLGTTPVVRGAITSGELDIYPEYTGNGAFFFKDENDAAWKNAQQGYEKVKKLDSEHNKLIWLTPAPANNTWTIAVRQDVAEKNKLTSLADLSRYLQEGGTFKLAASAEFIERADALPAFEKAYGFKLGQDQLLSLAGGDTAVTIKAAAQQTSGVNAAMAYGTDGPVAALGLQTLSDPQGVQPIYAPAPVVRESVLREYPQMAQWLQPVFASLDAKTLQQLNASIAVEGLDAKKVAADYLKQKGWTK
A: 5.7

Q: Specify reported total protein half-life in vivo for the sequence shown: MSQNLDATAINQIHALISAQGVNEIISKIGADAVALPENFRIHDLEKFNLNRFRFRGALSTASIDDFTRYSKDLADEGTRCFIDADNMRAVSVLNLGTIDEPGHADNTATLKLKKTAPFSALLSVNGERNSQKSLAEWIEDWADYLVGFDANGDAIQATKAAAAIRKITIEANQTADFEDNDFSGKRSLMESVEAKTKDIMPVAFEFKCVPFEGLKERPFKLRLSIITGDRPVLVLRIIQLEAVQEDMANEFRDLLVEKFKDSKVETFIGTFTA
A: 5.13

###

assay-details: total protein half-life in vivo (active degradation + dilution); higher = more stable protein
setup-conditions: E. coli NCM3722 delta-smpB; growth: N-lim chemostat; doubling time 6 h
property: total protein half-life in vivo (h)
Dear colleague, please return just the value in h, with no unit written.

Q: State its total protein half-life in vivo for this sequence: MNYEIKQEEKRTVAGFHLVGPWEQTVKKGFEQLMMWVDSKNIVPKEWVAVYYDNPDETPAEKLRCDTVVTVPGYFTLPENSEGVILTEITGGQYAVAVARVVGDDFAKPWYQFFNSLLQDSAYEMLPKPCFEVYLNNGAEDGYWDIEMYVAVQPKHH
A: 4.26

Q: Output total protein half-life in vivo of MTTRVIALDLDGTLLTPKKTLLPSSIEALARAREAGYQLIIVTGRHHVAIHPFYQALALDTPAICCNGTYLYDYHAKTVLEADPMPVIKALQLIEMLNEHHIHGLMYVDDAMVYEHPTGHVIRTSNWAQTLPPEQRPTFTQVASLAETAQQVNAVWKFALTHDDLPQLQHFGKHVEHELGLECEWSWHDQVDIARGGNSKGKRLTKWVEAQGWSMENVVAFGDNFNDISMLEAAGTGVAMGNADDAVKARANIVIGDNTTDSIAQFIYSHLI
A: 1.09

Q: Give me measured total protein half-life in vivo, please, for this sequence: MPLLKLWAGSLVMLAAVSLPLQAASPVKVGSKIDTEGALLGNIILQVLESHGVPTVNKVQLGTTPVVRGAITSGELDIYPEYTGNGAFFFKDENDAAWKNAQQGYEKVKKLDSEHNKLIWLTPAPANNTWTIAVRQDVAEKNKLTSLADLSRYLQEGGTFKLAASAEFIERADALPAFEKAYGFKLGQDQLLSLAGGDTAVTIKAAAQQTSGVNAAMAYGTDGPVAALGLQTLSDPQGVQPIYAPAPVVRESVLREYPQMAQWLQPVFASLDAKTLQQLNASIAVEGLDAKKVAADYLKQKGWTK
A: 5.47

Q: Check the records and state total protein half-life in vivo for MTLTASSSSRAVTNSPVVVALDYHNRDDALAFVDKIDPRDCRLKVGKEMFTLFGPQFVRELQQRGFDIFLDLKFHDIPNTAAHAVAAAADLGVWMVNVHASGGARMMTAAREALVPFGKDAPLLIAVTVLTSMEASDLVDLGMTLSPADYAERLAALTQKCGLDGVVCSAQEAVRFKQVFGQEFKLVTPGIRPQGSEAGDQRRIMTPEQALSAGVDYMVIGRPVTQSVDPAQTLKAINASLQRSA
A: 4.77

Q: Tell us which total protein half-life in vivo value is on record for MYHDVSYLLSRLINGPLSLRQIYFASSNGPVPDLAYQVDFPRLEIVLEGEFVDTGAGATLVPGDVLYVPAGGWNFPQWQAPATTFSVLFGKQQLGFSVVQWDGKQYQNLAKQHVARRGPRIGSFLLQTLNEMQMQPQEQQTARLIVASLLSHCRDLLGSQIQTASRSQALFEAIRDYIDERYASALTRESVAQAFYISPNYLSHLFQKTGAIGFNEYLNHTRLEHAKTLLKGYDLKVKEVAHACGFVDSNYFCRLFRKNTERSPSEYRRQYHSQLTEKPTTPE
A: 4.21

Q: Look up and report measured total protein half-life in vivo for this entry: MAAKDRIQAIKQMVANDKKVTVSNLSGIFQVTEETIRRDLEKLEDEGFLTRTYGGAVLNTAMLTENIHFYKRASSFYEEKQLIARKALPFIDNKTTMAADSSSTVMELLKLLQDRSGLTLLTNSAEAIHVLAQSEIKVVSTGGELNKNTLSLQGRITKEIIRRYHVDIMVMSCKGLDINSGALDSNEAEAEIKKTMIRQATEVALLVDHSKFDRKAFVQLADFSHINYIITDKSPGAEWIAFCKDNNIQLVW
A: 5.12
